- CONDITION_SET: buffer; pH 7.4; 200.0 µM
ASSAY_ENDPOINT: solubility kinetic (µg/mL)

compound=COc1cccc(CC(=O)Nc2ccc(-c3csc(C)n3)cc2)c1 scale_unit=µg/mL modifier_sign== reported_value=2.5
compound=O=C(CN1C(=O)COc2ccc(Cl)cc21)N1CCOCC1 scale_unit=µg/mL modifier_sign=> reported_value=46.6
compound="CCC(C(=O)Nc1ccsc1C(=O)OC)c1ccccc1 (stereo not given)" scale_unit=µg/mL modifier_sign== reported_value=5.8
compound=COc1ccc(NC(=O)Nc2ccc([N+](=O)[O-])cc2)cn1 scale_unit=µg/mL modifier_sign== reported_value=0.9
compound=Nc1nc(CCl)nc(Nc2ccc3ccccc3c2)n1 scale_unit=µg/mL modifier_sign== reported_value=29.3
compound="O=C(O)CC(CC(=O)Nc1ccc(Oc2ccccc2)cc1)c1ccccc1 (stereo not given)" scale_unit=µg/mL modifier_sign=> reported_value=56.3
compound="O=C(Nc1ccc(O)cc1)c1ccc(NC(=O)C2CCCO2)cc1 (stereo not given)" scale_unit=µg/mL modifier_sign=> reported_value=49
compound=Cc1cc(NCCOCCO)n2c(nc3ccccc32)c1C#N scale_unit=µg/mL modifier_sign=> reported_value=46.6
compound="O=C(CN1C(=O)COc2ccc(Cl)cc21)NCC1CCCO1 (stereo not given)" scale_unit=µg/mL modifier_sign=> reported_value=48.7
compound=COc1ccccc1C(=O)N/C(=C\c1ccccc1)C(=O)NCc1ccco1 scale_unit=µg/mL modifier_sign=> reported_value=56.5
compound=Cl.Oc1ccc(-c2csc(Nc3cccc4ccccc34)n2)cc1O scale_unit=µg/mL modifier_sign== reported_value=15.2
compound=C/C=C/c1ccc(OCCCCN2CCC(C)CC2)c(OC)c1 scale_unit=µg/mL modifier_sign== reported_value=33.9
compound=S=C1N[C@H]2CCCC[C@@H]2N1 scale_unit=µg/mL modifier_sign== reported_value=20.8
compound=O=C(CN1C(=O)C(=O)N(CCC2=CCCCC2)C1=O)Nc1ccc(F)cc1F scale_unit=µg/mL modifier_sign== reported_value=6.5
compound=COc1cc(CC(=O)OCC(=O)NCc2cccs2)cc(OC)c1OC scale_unit=µg/mL modifier_sign=> reported_value=56.9

* * *

- CONDITION_SET: buffer; pH 7.4; 200.0 µM
# maps each entry to its solubility kinetic
ASSAY_ENDPOINT: solubility kinetic

compound=O=C1CSC(=Nc2ccc(F)cc2)N1 reported_value="> 31.5 µg/mL"
compound=CCOC(=O)c1c(C)oc2c1c(C=NCCC(=O)O)c(O)c1ccccc12 reported_value="< 0.8 µg/mL"
compound=COc1cc2[nH]c(=S)n(Cc3ccc(C)cc3)c(=O)c2cc1OC reported_value="< 0.4 µg/mL"
compound=O=C(CN1CCN(c2ccccn2)CC1)Nc1cc(F)ccc1F reported_value="> 49.9 µg/mL"
compound="Cn1c(=O)c(S(=O)C2CCCCC2)c(O)c2ccccc21 (configuration not stated)" reported_value="> 45.8 µg/mL"
compound=O=C(O)CC1(CC(=O)Nc2ccc(C(F)(F)F)cc2)CCCC1 reported_value="> 49.4 µg/mL"
compound=CCNC(=O)COC(=O)c1[nH]c(C)c(C(=O)OC)c1C reported_value="> 42.3 µg/mL"

* * *

- CONDITION_SET: buffer; pH 7.4; 200.0 µM
ASSAY_ENDPOINT: solubility kinetic

molecule=COc1ccc(S(=O)(=O)N[C@@H](CSCc2ccccc2)C(=O)O)cc1 assay_endpoint="solubility kinetic" reported_value="> 57.2 µg/mL"
molecule="CC(NC(=O)C(C)N1C(=O)c2ccccc2C1=O)c1ccccc1 (stereo not given)" assay_endpoint="solubility kinetic" reported_value="> 48.4 µg/mL"
molecule=COc1cc(/C=C/C(=O)NC(=O)c2ccccc2O)ccc1O assay_endpoint="solubility kinetic" reported_value="> 47 µg/mL"
molecule=COc1ccccc1C(=O)Nc1cccc2c1CCCC2 assay_endpoint="solubility kinetic" reported_value="< 0.6 µg/mL"
molecule=Cc1cccc(C)c1Nc1ncnc2ccccc12.Cl assay_endpoint="solubility kinetic" reported_value="> 42.9 µg/mL"

* * *

# maps each entry to its solubility kinetic
- CONDITION_SET: buffer; pH 7.4; 200.0 µM
ASSAY_ENDPOINT: solubility kinetic (µg/mL)

compound=O=C(c1c(F)cccc1F)N(Cc1cccs1)C1CCCC1 scale_unit=µg/mL modifier_sign== reported_value=30.3
compound=Cc1ccccc1CC(=O)N1CCN(C(=O)c2ccco2)CC1 scale_unit=µg/mL modifier_sign=> reported_value=46.9
compound=CC(C)Cc1csc(NC(=O)C(C)C)c1C(=O)O scale_unit=µg/mL modifier_sign=> reported_value=40.4
compound="CN(C)c1ccc([N+](=O)[O-])cc1C(=O)NCC(c1ccco1)N(C)C (configuration not stated)" scale_unit=µg/mL modifier_sign== reported_value=47.7
compound=CCOc1ccccc1NC(=O)Nc1ccon1 scale_unit=µg/mL modifier_sign== reported_value=15.5
compound=O=[N+]([O-])/C=C/c1ccc2c(ccn2Cc2ccccc2)c1 scale_unit=µg/mL modifier_sign== reported_value=0.6
compound=Cc1ccsc1C(=O)OCC(=O)NCCCc1ccccc1 scale_unit=µg/mL modifier_sign== reported_value=6.2
compound=Cc1c(CCC(=O)NC2CC2)c(=O)oc2cc(O)ccc12 scale_unit=µg/mL modifier_sign=> reported_value=43.1
compound="CC(CCc1ccccc1)NC(=O)c1ccc(F)cc1 (configuration not stated)" scale_unit=µg/mL modifier_sign== reported_value=33.6
compound=O=C(Nc1ccc2c(c1)OCO2)c1cnccn1 scale_unit=µg/mL modifier_sign== reported_value=19.5
compound=O=C(NNC(=S)NC(=O)c1ccc(F)cc1)c1ccncc1 scale_unit=µg/mL modifier_sign=> reported_value=47.7
compound=O=C(/C=C/c1ccc(Cl)cc1)N1CCOCC1 scale_unit=µg/mL modifier_sign== reported_value=33.3
compound=Cc1ccc(Nc2c(-c3ccc(N(C)C)cc3)nc3ncccn23)cc1 scale_unit=µg/mL modifier_sign== reported_value=1
compound=COc1cccc(/C=C/C(=O)OCC(=O)NC2CC2)c1OC scale_unit=µg/mL modifier_sign== reported_value=24
compound="Cc1ccc(SCC(=O)N(C)C2CCS(=O)(=O)C2)c(C)c1 (configuration not stated)" scale_unit=µg/mL modifier_sign=> reported_value=49.1
compound=COc1ccc(OCCC(=O)Nc2ccc(S(N)(=O)=O)cc2)cc1 scale_unit=µg/mL modifier_sign== reported_value=48.1
compound=COc1ccc(C(=O)Nc2ccc(CN3CCOCC3)cc2)cc1Br scale_unit=µg/mL modifier_sign== reported_value=14.1
compound=COc1ccc(N2CCOCC2)c(NC(=O)c2cccnc2)c1 scale_unit=µg/mL modifier_sign=> reported_value=47
compound=CC(C)CN1C(=O)C(=O)N(CC(=O)c2ccc3c(c2)CCCC3)C1=O scale_unit=µg/mL modifier_sign== reported_value=47.2
compound=O=C(Nc1ccccn1)c1ccc2ccccc2c1O scale_unit=µg/mL modifier_sign== reported_value=31.4
compound=O=C(Nc1ccc(Cl)cc1)Nc1ccccn1 scale_unit=µg/mL modifier_sign== reported_value=0.6
compound=Cc1cc2oc(=O)cc(CN3CCOCC3)c2cc1C(C)C scale_unit=µg/mL modifier_sign== reported_value=3.4
compound=CCC(=NCc1ccco1)c1c(O)n(C)c(=O)n(C)c1=O scale_unit=µg/mL modifier_sign=> reported_value=43.7
compound=CC(=O)Nc1nc(C)c(Oc2ccc(Cl)cc2)c(=O)[nH]1 scale_unit=µg/mL modifier_sign== reported_value=43
compound="CC(Sc1nnc(-c2ccccc2F)n1C1CC1)C(N)=O (configuration not stated)" scale_unit=µg/mL modifier_sign=> reported_value=46
compound="COc1ccc(S(=O)(=O)N2CCSC2C)cc1C (configuration not stated)" scale_unit=µg/mL modifier_sign== reported_value=34.9
compound=CCOc1ccc(NC(=O)CCN2C(=O)c3cccc([N+](=O)[O-])c3C2=O)cc1 scale_unit=µg/mL modifier_sign== reported_value=16.4
compound=NC(N)=NC(N)=Nc1ccccc1 scale_unit=µg/mL modifier_sign=> reported_value=26.6
compound=c1csc(-c2nc(CN3CCSCC3)cs2)c1 scale_unit=µg/mL modifier_sign== reported_value=32.8
compound=O=C(Nc1ccc(N2C(=O)CCC2=O)cc1Cl)c1cccs1 scale_unit=µg/mL modifier_sign=> reported_value=50.2
compound=Cc1ccc(NC(=O)N2CCCc3ccccc32)cc1C scale_unit=µg/mL modifier_sign== reported_value=29
compound=NC(=O)CSc1nc2ccc([N+](=O)[O-])cc2[nH]1 scale_unit=µg/mL modifier_sign=> reported_value=37.8

* * *

- CONDITION_SET: buffer; pH 7.4; 200.0 µM
ASSAY_ENDPOINT: solubility kinetic

compound=COC(=O)c1ccccc1Oc1ccc(NC(=O)CCCl)cc1 assay_endpoint="solubility kinetic" reported_value="> 50.1 µg/mL"
compound=NC(=O)c1ccc(NC(=O)COC(=O)CCC2CCCCC2)cc1 assay_endpoint="solubility kinetic" reported_value="9.1 µg/mL"
compound=N#C/C=C(/c1ccc(F)cc1)N1CCOCC1 assay_endpoint="solubility kinetic" reported_value="> 34.8 µg/mL"
compound=Cc1ccc(C(=O)N2CCN(Cc3ccccc3)CC2)o1 assay_endpoint="solubility kinetic" reported_value="> 42.7 µg/mL"
compound=Fc1cccc(CSc2nc3ncc(Cl)cc3[nH]2)c1 assay_endpoint="solubility kinetic" reported_value="2.6 µg/mL"
compound=COc1ccc(C(=O)NCCNc2ccc([N+](=O)[O-])cc2)cc1OC assay_endpoint="solubility kinetic" reported_value="1.7 µg/mL"
compound="CC1CCCC(C)N1C(=O)CSc1nccc(=O)[nH]1 (stereo not drawn)" assay_endpoint="solubility kinetic" reported_value="29.3 µg/mL"
compound=NC(=O)COc1ccc(C(=O)/C=C2/C(=O)Nc3ccccc32)cc1 assay_endpoint="solubility kinetic" reported_value="6.4 µg/mL"
